# testName: reversal of MRP1-mediated doxorubicin resistance, pilot screen, H69AR cells, doxorubicin co-treatment (AID 601)
# conditionDetails: H69AR cells + 2 uM doxorubicin, CellTiter-Glo, 72 h; at 10 µM; stronger effect = higher value
measuredQuantity: differential viability (reversal) (%)
Give bare numbers, in %.

Below, 3 compounds whose answers are already recorded.
compound: CC1=C(C(=O)OC2CCCCC2)C(c2ccc(C)o2)C2=C(CC(C)(C)CC2=O)N1 (stereo unspecified)
differential viability (reversal) [%]: 13.1

compound: COC(=O)c1[nH]c2ccc(C)cc2c1NC(=O)CN1CCC(C)CC1
differential viability (reversal) [%]: -6.15

compound: O=C(Nc1ccc(N2CCOCC2)cc1)Nc1ccc2nc(-c3ccco3)c(-c3ccco3)nc2c1
differential viability (reversal) [%]: -8.11

// each compound listed below needs its differential viability (reversal)
1. O=C(CN1C(=O)COc2ccccc21)NCCN1CCc2ccccc2C1
2. Cc1cnn(C(=S)NCc2ccco2)c1
3. CCCCNC(=O)NS(=O)(=O)c1ccc(C)cc1
4. Cc1cccc(NCc2ccccc2O)c1
5. O=S(CC(O)COCc1ccc(Cl)cc1)c1ccccn1 (stereo unspecified)
6. Cc1ccc2c(CC(=O)OCc3csc(C)n3)coc2c1

-3.52
-5.57
-5.94
5.33
1.46
2.5

Can you give me differential viability (reversal) for all of these, one by one?
1. Cc1nnc(SCC(=O)Nc2nccs2)s1
2. CC(C)C[C@H](NC(=O)Nc1cccc(C(F)(F)F)c1)C(=O)O
3. CSC1CCCCC1(O)CSc1nc2c(cc1C#N)CCCC2 (stereo unspecified)

[1.75, 14.6, -2.66]
